Taken from ChEMBL document CHEMBL1255260.

Assay: AUC (3 to 20 days) in uncomplicated malaria patient at 31 mg/kg, perorally four-dose treatment regimen
Assay type: ADME, organism-based
Design: dose 31 mg/kg, route oral
Conditions: human, plasma, po

# entry smiles, AUC(0-t) (ng·h/mL)
data = [
    ("Clc1ccc2c(N3CCN(CCCN4CCN(c5ccnc6cc(Cl)ccc56)CC4)CC3)ccnc2c1", 9070),
]

----------
Experiment: Apparent oral clearance in human with uncomplicated malaria at 32 mg/kg, perorally after 35 days
Assay type: ADME, organism-based
Set-up: dose 32 mg/kg, route oral
Settings: in vivo
property label: CL/F (mL/min/kg)

# entry smiles, property label, unit abbreviation, reported
measured = [
    ("Clc1ccc2c(N3CCN(CCCN4CCN(c5ccnc6cc(Cl)ccc56)CC4)CC3)ccnc2c1", "CL/F", "mL/min/kg", 15),
]

----------
Experiment: Apparent steady-state volume of distribution with respect to bioavailability in human with uncomplicated malaria at 31 mg/kg, perorally after 63 days
Assay type: ADME, organism-based
Settings: in vivo, po, read-out: Vss/F

# compound, unit abbreviation, Vd/F
measured = [
    ("Clc1ccc2c(N3CCN(CCCN4CCN(c5ccnc6cc(Cl)ccc56)CC4)CC3)ccnc2c1 [PIPERAQUINE]", "L/kg", 874),
]

----------
Assay: Apparent oral clearance in human with uncomplicated malaria at 31 mg/kg, perorally
Type: ADME, organism-based
Parameters: dose 31 mg/kg, route oral
Conditions: in vivo

# compound, CL/F / mL/min
records = [
    ("Clc1ccc2c(N3CCN(CCCN4CCN(c5ccnc6cc(Cl)ccc56)CC4)CC3)ccnc2c1 [PIPERAQUINE]", 1100),
]

----------
Assay: AUC (3 to 20 days) in uncomplicated malaria patient at 31 mg/kg, perorally once daily for 3 days
Type: ADME, organism-based
Parameters: dose 31 mg/kg, route oral
Settings: human, plasma, po

# compound, AUC / ng·h/mL
records = [
    ("Clc1ccc2c(N3CCN(CCCN4CCN(c5ccnc6cc(Cl)ccc56)CC4)CC3)ccnc2c1 [PIPERAQUINE]", 8650),
]

----------
Test: AUC (3 to 20 days) in children with uncomplicated malaria at 31 mg/kg, perorally
Assay type: ADME, organism-based
Design: dose 31 mg/kg, route oral
Conditions: human, plasma, po
property label: AUC(0-t)

# entry smiles, reported
records = [
    ("Clc1ccc2c(N3CCN(CCCN4CCN(c5ccnc6cc(Cl)ccc56)CC4)CC3)ccnc2c1", "7580 ng·h/mL"),
]

----------
Assay: Apparent oral clearance in human with uncomplicated malaria at 31 mg/kg, perorally after 63 days
Assay type: ADME, organism-based
Design: dose 31 mg/kg, route oral
Settings: in vivo
property label: CL/F (L/h/kg)

# entry smiles, unit abbreviation, reported
measured = [
    ("Clc1ccc2c(N3CCN(CCCN4CCN(c5ccnc6cc(Cl)ccc56)CC4)CC3)ccnc2c1", "L/h/kg", 1.4),
]

----------
Experiment: Terminal half-life in high-fat fed healthy human at 4.2 mg/kg, po after 42 days
Format: ADME, organism-based
Design: dose 4.2 mg/kg, route oral
Conditions: in vivo

# entry smiles, half-life (days)
data = [
    ("Clc1ccc2c(N3CCN(CCCN4CCN(c5ccnc6cc(Cl)ccc56)CC4)CC3)ccnc2c1", 21),
]

----------
Test: AUC (0 to 63 days) in human with uncomplicated malaria at 31 mg/kg, perorally once daily for 3 days
Type: ADME, organism-based
Parameters: time < 1512 hr, dose 31 mg/kg, route oral
Settings: plasma, po
property label: AUC at 1512 h (ng·h/mL)

# molecule, property label, reported
data = [
    ("Clc1ccc2c(N3CCN(CCCN4CCN(c5ccnc6cc(Cl)ccc56)CC4)CC3)ccnc2c1 [PIPERAQUINE]", "AUC at 1512 h", 19400),
]
